Kindly state Ki for each of the entries shown.
// return numeric value only (unit: nM, not printed)

**Query** Request - read-out Ki | tested on human ETA receptor (Homo sapiens, UniProt P25101) | compound COc1ccc(CCOC(c2ccccc2)(c2ccccc2)[C@H](Oc2nc(C)cc(C)n2)C(=O)O)cc1OC [I-445 (S) enantiomer]
**Result** 1.3

**Query** Request - read-out Ki | tested on human ETA receptor (Homo sapiens, UniProt P25101) | compound COc1nc(OC(C(=O)O)C(OCCc2ccc(C)cc2)(c2ccccc2)c2ccccc2)nc2c1CCO2 (stereo not drawn)
**Result** 11

**Query** Request - read-out Ki | tested on human ETA receptor (Homo sapiens, UniProt P25101) | compound COc1ccc(CCOC(c2ccccc2)(c2ccccc2)C(Oc2nc(C)cc(OC)n2)C(=O)O)cc1 (stereo not drawn)
**Result** 3

**Query** Request - read-out Ki | tested on human ETA receptor (Homo sapiens, UniProt P25101) | compound COc1cc(C)nc(OC(C(=O)O)C(OCCc2ccc(OC)c(OC)c2)(c2ccc(Cl)cc2)c2ccc(Cl)cc2)n1 (stereo not drawn)
**Result** 230

**Query** Request - read-out Ki | tested on human ETA receptor (Homo sapiens, UniProt P25101) | compound COc1cc(CCOC(c2ccc(Cl)cc2)(c2ccc(Cl)cc2)C(Oc2nc(OC)c3c(n2)OCC3)C(=O)O)cc(OC)c1 (stereo not drawn)
**Result** 300

**Query** Request - read-out Ki | tested on human ETA receptor (Homo sapiens, UniProt P25101) | compound COc1ccccc1CCOC(c1ccccc1)(c1ccccc1)C(Oc1nc(OC)c2c(n1)OCC2)C(=O)O (stereo not drawn)
**Result** 575

---

Kindly state melting point for each of the entries shown.

**Query** Which value of melting point has been reported for COc1nc(OC(C(=O)O)C(OCCc2ccc(C)cc2)(c2ccccc2)c2ccccc2)nc2c1CCO2 (stereo not drawn) [Compound I-370] in the records?
**Result** 128 to 130 °C

**Query** Which value of melting point has been reported for COc1cc(C)nc(OC(C(=O)O)C(OCCc2ccccc2)(c2ccccc2)c2ccccc2)n1 (stereo not drawn) [Compound I-719] in the records?
**Result** 155 °C (dec.)

**Query** Which value of melting point has been reported for CCc1ccc(C(OCCc2ccc(OC)cc2)(c2ccc(CC)cc2)C(Oc2nc(C)cc(OC)n2)C(=O)O)cc1 (stereo not drawn) [Compound I-147] in the records?
**Result** 150 to 155 °C

**Query** Which value of melting point has been reported for COc1ccc(CCCOC(c2ccccc2)(c2ccccc2)C(Oc2nc(C)cc(C)n2)C(=O)O)cc1 (stereo not drawn) [Compound I-555] in the records?
**Result** 165 to 170 °C

**Query** Which value of melting point has been reported for Cc1cc(C)nc(OC(C(=O)O)C(O/C=C/Cc2ccccc2)(c2ccccc2)c2ccccc2)n1 (stereo not drawn) [Compound I-27] in the records?
**Result** 128 to 133 °C

**Query** Which value of melting point has been reported for CCCOc1ccc(CCOC(c2ccccc2)(c2ccccc2)C(Oc2nc(C)cc(OC)n2)C(=O)O)cc1 (stereo not drawn) [Compound I-69] in the records?
**Result** 115 to 119 °C

**Query** Which value of melting point has been reported for COc1ccc(CCOC(c2ccc(Cl)cc2)(c2ccc(Cl)cc2)C(Oc2nc(OC)c3c(n2)OCC3)C(=O)O)cc1OC (stereo not drawn) [Compound I-635] in the records?
**Result** 100 to 110 °C

**Query** Which value of melting point has been reported for COc1cc(C)nc(OC(C(=O)O)C(OCCc2ccccc2OC)(c2ccc(Cl)cc2)c2ccc(Cl)cc2)n1 (stereo not drawn) [Compound I-487] in the records?
**Result** 85 to 90 °C

**Query** Which value of melting point has been reported for Cc1cc(C)nc(OC(C(=O)O)C(OCCc2ccc(Cl)cc2)(c2ccccc2)c2ccccc2)n1 (stereo not drawn) [Compound I-713] in the records?
**Result** 108 °C (dec.)

**Query** Which value of melting point has been reported for COc1cc(C)nc(OC(C(=O)O)C(OCCc2ccc(C)cc2)(c2ccccc2)c2ccccc2)n1 (stereo not drawn) [Compound I-465] in the records?
**Result** 145 to 147 °C

**Query** Which value of melting point has been reported for CCc1ccc(C(OCCc2ccc(OC)cc2)(c2ccc(CC)cc2)C(Oc2nc(C)cc(C)n2)C(=O)O)cc1 (stereo not drawn) [Compound I-148] in the records?
**Result** 130 to 133 °C

**Query** Which value of melting point has been reported for CCCCOc1ccc(CCOC(c2ccccc2)(c2ccccc2)C(Oc2nc(C)cc(C)n2)C(=O)O)cc1 (stereo not drawn) [Compound I-70] in the records?
**Result** 122 to 125 °C

**Query** Which value of melting point has been reported for COc1cc(C)nc(OC(C(=O)O)C(OCCc2ccc(Cl)cc2)(c2ccccc2)c2ccccc2)n1 (stereo not drawn) [Compound I-746] in the records?
**Result** 93 to 98 °C

**Query** Which value of melting point has been reported for COc1ccc(CCOC(c2ccccc2)(c2ccccc2)C(Oc2nc(C)cc(C)n2)C(=O)O)cc1OC (stereo not drawn) [Compound I-445] in the records?
**Result** 125 to 130 °C (dec.)

**Query** Which value of melting point has been reported for Cc1cc(C)nc(OC(C(=O)O)C(OCCCc2ccccc2Cl)(c2ccccc2)c2ccccc2)n1 (stereo not drawn) [Compound I-384] in the records?
**Result** 172 to 178 °C

---

SYSTEM_UNDER_TEST: human ETA receptor (Homo sapiens)
Sequence (P25101 21-427): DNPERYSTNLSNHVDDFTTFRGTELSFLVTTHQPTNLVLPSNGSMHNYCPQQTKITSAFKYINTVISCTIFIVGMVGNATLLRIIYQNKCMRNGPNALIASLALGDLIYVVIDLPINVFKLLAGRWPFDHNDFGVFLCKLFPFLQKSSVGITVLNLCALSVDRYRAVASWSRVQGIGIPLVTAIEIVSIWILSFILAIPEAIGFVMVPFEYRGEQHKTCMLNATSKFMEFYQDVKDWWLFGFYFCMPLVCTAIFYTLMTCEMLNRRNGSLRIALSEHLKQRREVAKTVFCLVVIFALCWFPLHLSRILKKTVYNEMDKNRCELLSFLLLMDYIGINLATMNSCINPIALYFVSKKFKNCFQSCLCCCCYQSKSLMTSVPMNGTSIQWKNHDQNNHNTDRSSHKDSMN
pKi: −log10 of the molar value.
Think of 7 as a floor: if pKi stands on it or above, it is satisfied; beneath it, not satisfied.

**Query** Threshold query (pKi >= 7) on COc1cc(C)nc(OC(C(=O)O)C(OCCc2ccc(OC)c(OC)c2)(c2ccccc2)c2ccccc2)n1 (stereo not shown)
**Result** satisfied

**Query** Threshold query (pKi >= 7) on COc1cc(C)nc(OC(C(=O)O)C(OCCCc2ccccc2)(c2ccccc2)c2ccccc2)n1 (stereo not shown)
**Result** satisfied

**Query** Threshold query (pKi >= 7) on Cc1cc(C)nc(OC(C(=O)O)C(OCCc2ccc(C(C)C)cc2)(c2ccccc2)c2ccccc2)n1 (stereo not shown)
**Result** satisfied

**Query** Threshold query (pKi >= 7) on COc1cc(CCOC(c2ccccc2)(c2ccccc2)C(Oc2nc3c(c(OC)n2)CCC3)C(=O)O)cc(OC)c1 (stereo not shown)
**Result** not satisfied

**Query** Threshold query (pKi >= 7) on COc1ccc(CCOC(c2ccccc2)(c2ccccc2)C(Oc2nc(C)cc(C)n2)C(=O)O)cc1OC (stereo not shown)
**Result** satisfied

---

ENDPOINT_NAME: melting point

**Query** Which value of melting point has been reported for Cc1cc(C)nc(OC(C(=O)O)C(OCCc2ccccc2)(c2ccccc2)c2ccccc2)n1 (stereo not shown) in the records?
**Result** 130 to 133 °C

**Query** Which value of melting point has been reported for COc1cc(C)nc(OC(C(=O)O)C(OCCc2ccc(C)cc2)(c2ccc(Cl)cc2)c2ccc(Cl)cc2)n1 (stereo not shown) in the records?
**Result** 90 to 100 °C

**Query** Which value of melting point has been reported for COc1cc(C)nc(OC(C(=O)O)C(OCCc2ccc(OC)c(OC)c2)(c2ccc(Cl)cc2)c2ccc(Cl)cc2)n1 (stereo not shown) in the records?
**Result** 100 to 110 °C

**Query** Which value of melting point has been reported for COc1cc(C)nc(OC(C(=O)O)C(O/C=C/Cc2ccccc2)(c2ccccc2)c2ccccc2)n1 (stereo not shown) in the records?
**Result** 171 to 174 °C

**Query** Which value of melting point has been reported for COc1ccc(CCCOC(c2ccccc2)(c2ccccc2)C(Oc2nc(C)cc(OC)n2)C(=O)O)cc1 (stereo not shown) in the records?
**Result** 160 to 165 °C

**Query** Which value of melting point has been reported for CCCCOc1ccc(CCOC(c2ccccc2)(c2ccccc2)C(Oc2nc(C)cc(OC)n2)C(=O)O)cc1 (stereo not shown) in the records?
**Result** 118 to 122 °C

**Query** Which value of melting point has been reported for COc1cc(CCOC(c2ccc(Cl)cc2)(c2ccc(Cl)cc2)C(Oc2nc(OC)c3c(n2)OCC3)C(=O)O)cc(OC)c1 (stereo not shown) in the records?
**Result** 90 to 100 °C
